Source listed as ChEMBL document CHEMBL1157539.

# Test system: Plasmodium falciparum
# ASSAY PROCEDURE: GSK_TCMDC: Inhibition of Plasmodium falciparum 3D7 in whole erythrocytes, using parasite LDH activity as an index of growth.
# Format: functional, organism-based
# RUN PARAMETERS: Plasmodium falciparum, 3D7
EXPERIMENTAL ENDPOINT: log10 of XC50 (log10 of the value in nM)
On a log10 scale: recorded XC50, unit nM.

// worked examples, log10 of XC50 included
| COMPOUND | EXPERIMENTAL RESULT |
| --- | --- |
| O=C(N[C@@H](CC1CCCCC1)C(=O)NCCN1CCOCC1)c1ccc(O)c(-c2ccc(Cl)c(Cl)c2)c1 | 2.26 |
| Cc1cc(Nc2ccc3c(c2)CCC3)n2ncnc2n1 | 2.99 |

The following compounds each have a reported value; give each one's log10 of XC50.
1. CN(C)CCCNc1ncnc2c1[nH]c1ccc(Br)cc12
2. Cc1c(C2CCN(CCCCNC(=O)c3ccc(-c4ccc(C#N)cc4)cc3)CC2)c2ccccc2n1CCO
3. COc1ccc(C=Cc2ccc(-c3c(C)[nH]c(C)c(Cl)c3=O)cc2)cc1OC
4. Clc1cc(Cl)c2cc(CN[C@H]3CCC[C@@H]3CNc3nc4ccccc4[nH]3)[nH]c2c1
5. CS(=O)(=O)c1cccc(-c2cnc(N)c3cc(-c4cccc(F)c4)ccc23)c1
6. CCC(C)(C)C1CCc2[nH]c3ccccc3c(=O)c2C1 (centres undefined)
7. OC1CCCN(Cc2ccc(-c3cccc(-c4nc5cc(F)ccc5[nH]4)c3)cc2)C1 (centres undefined)

Ans:
1. 2.50
2. 3.00
3. 2.45
4. 2.44
5. 2.93
6. 2.58
7. 2.94

The following compounds each have a reported value; give each one's log10 of XC50.
1. CCCCCCCN1CC[C@@H](CCCc2ccnc3ccc(OC)cc23)[C@@H](CCN)C1
2. CC(=O)N1N=C(c2[nH]c3ccc(Br)cc3c2C)OC1c1ccccc1 (centres undefined)
3. Cc1[nH]c(C)c(-c2ccc(-c3ccc(OCC(F)(F)F)cc3)nc2)c(=O)c1Cl
4. NC1CCN(c2nc(NCCCc3ccc(O)cc3)nc(NCc3ccccc3-c3ccccc3)n2)CC1
5. O=[N+]([O-])c1ccc(C2=NN(S(=O)(=O)c3c(Cl)cc(Cl)cc3Cl)CCCC2)cc1
6. O=C(/C=C/c1ccc(Cl)c(Cl)c1)NCCCCCN1CCCN(C(=O)Nc2cc(Cl)cc(Cl)c2)CC1
7. Cc1ccc(-c2ccc3c(c2)C=C(C(=O)NCC2CCN(CC4CCN(C(=O)/C=C/c5ccc(Cl)c(Cl)c5)CC4)CC2)CCC3)cc1

Ans:
2.87
2.89
2.59
2.83
2.10
2.90
2.89

The following compounds each have a reported value; give each one's log10 of XC50.
1. N=C(N)Nc1nc(-c2ccc(NCc3ccc(CNc4cccc(-c5csc(NC(=N)N)n5)c4)cc3)cc2)cs1
2. Oc1ccccc1CN(CCCN(Cc1ccccn1)Cc1ccccc1O)Cc1ccccn1
3. CC(C)CNCc1ccc(-c2cccc(CNC3CCN(Cc4ccccc4)CC3)c2)cc1
4. c1ccc(CNCc2cccc(-c3csc(-c4nc5ccccc5[nH]4)c3)c2)cc1
5. CCOC(=O)c1cc(C(=O)NCCCCN2CCC(c3cn(C)c4ccccc34)CC2)ccc1-c1ccc(C(F)(F)F)cc1

Ans:
1. 2.49
2. 3.03
3. 2.38
4. 2.66
5. 3.08

The following compounds each have a reported value; give each one's log10 of XC50.
1. Cc1cccn2c(=O)c3cc(C(=O)NCCc4ccccc4)c(=N)n(CCCOC(C)C)c3nc12
2. c1ccc(Oc2ccc(Nc3ccnc4ccc(-c5ccco5)cc34)cc2)cc1
3. CCc1cc(NCc2ccncc2)nc(Nc2ccc(F)cc2)n1
4. Cc1nc(Nc2cc(Cl)ccc2O)nc(Nc2cc(Cl)ccc2O)c1[N+](=O)[O-]
5. CC(C)(C)c1ccc(CN2CCC(NC(=O)c3ccc(-c4cccc(F)c4)s3)CC2)cc1
6. CCC(C)NC(=O)Cn1c2ncccc2c(=O)n1-c1ccc(C)cc1 (centres undefined)

Ans:
2.68
2.97
3.12
1.47
3.04
3.10
